# PROTOCOL DESCRIPTION: NCI Yeast Anticancer Drug Screen. Data for the cln2 rad14 strain (AID 165)
# ASSAY CONDITIONS: S. cerevisiae cln2 rad14 strain, at 50.0 µM (retest, dose inferred, filed as 5.0)
The panel holds about 79,000 compounds, 15% with a hit somewhere; the sample as a whole holds those more often. Active and inactive are the calls of the source. No stated cut-off is given here; in the data, active means growth inhibition above about 70%; inactive means the rest.
Hi! Could you answer with just one of these? T (active), F (inactive)

Would you please look over these solved cases?
| MOLECULE | LABEL |
| --- | --- |
| CCOC(=O)c1nnc2cc(-c3ccccc3)nn2c1-c1ccccc1 | F |
| CC1=Nc2ccccc2C1C(Cc1ccccc1N)c1c(C)[nH]c2ccccc12 (configuration not stated) | T |
| Cc1ccc(SSCCCCS(=O)O)cc1 | F |
| Nc1nc(-c2cc3cc(Cl)ccc3o2)cs1 | F |

Okay, next one:
What did the test return for COc1ccc2c(c1OC)C1=C(C2=O)c2cc3c(cc2CCN1)OCO3 ? T
